Hello, the source for this data is patent US20230038638A1, in case you need it.

Target: human C4b (human) (UniProt P0C0L5)
Sequence: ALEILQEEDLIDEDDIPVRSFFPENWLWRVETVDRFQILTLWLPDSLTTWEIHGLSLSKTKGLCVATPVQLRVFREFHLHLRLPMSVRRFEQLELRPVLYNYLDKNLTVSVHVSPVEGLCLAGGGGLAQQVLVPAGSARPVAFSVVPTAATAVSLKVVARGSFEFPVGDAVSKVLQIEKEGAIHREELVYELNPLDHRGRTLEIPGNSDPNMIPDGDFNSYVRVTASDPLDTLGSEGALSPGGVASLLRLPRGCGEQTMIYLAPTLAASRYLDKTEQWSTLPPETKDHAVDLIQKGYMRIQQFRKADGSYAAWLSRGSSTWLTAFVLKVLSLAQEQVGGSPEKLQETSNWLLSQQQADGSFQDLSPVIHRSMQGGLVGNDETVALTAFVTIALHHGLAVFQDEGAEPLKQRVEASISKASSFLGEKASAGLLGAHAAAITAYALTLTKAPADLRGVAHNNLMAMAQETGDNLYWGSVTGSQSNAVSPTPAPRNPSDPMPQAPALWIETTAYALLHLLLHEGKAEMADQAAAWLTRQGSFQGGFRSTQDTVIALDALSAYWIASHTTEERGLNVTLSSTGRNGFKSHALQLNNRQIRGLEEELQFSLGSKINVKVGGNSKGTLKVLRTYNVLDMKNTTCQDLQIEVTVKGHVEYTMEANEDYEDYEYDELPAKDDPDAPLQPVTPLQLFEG
MEASURE: C4b Screen Ref Fold (fold vs CFI-HSA wild type)

Solved entries:
CFI-HSA E457G; N531G; E461Q; R462K; F464Y; GGSSGG (SEQ ID NO: 6); CR1 (ccp15-17) (from UniProt P17927) (enzyme): 4.36
fH_CCP1-4; GGGGSS(9); wt hCFI (enzyme): 0.97

I: CFI-HSA Y408L; N531G; ΔC-term (Δ558-PFISQYNV (SEQ ID NO: 14)-565) (enzyme)
II: CFI-HSA E457G; N531G; E461Q; R462K; F464Y; GGSSGG (SEQ ID NO: 6); CR1 (ccp1-3) (from UniProt P17927) (enzyme)
Return label of the item with the larger C4b Screen Ref Fold (fold vs CFI-HSA wild type). Candidates: I , II . Response format: the label of the selected entry. I
(I: 1.85, II: 0.46)

###

Target: human C4b (human) (UniProt P0C0L4)
Sequence: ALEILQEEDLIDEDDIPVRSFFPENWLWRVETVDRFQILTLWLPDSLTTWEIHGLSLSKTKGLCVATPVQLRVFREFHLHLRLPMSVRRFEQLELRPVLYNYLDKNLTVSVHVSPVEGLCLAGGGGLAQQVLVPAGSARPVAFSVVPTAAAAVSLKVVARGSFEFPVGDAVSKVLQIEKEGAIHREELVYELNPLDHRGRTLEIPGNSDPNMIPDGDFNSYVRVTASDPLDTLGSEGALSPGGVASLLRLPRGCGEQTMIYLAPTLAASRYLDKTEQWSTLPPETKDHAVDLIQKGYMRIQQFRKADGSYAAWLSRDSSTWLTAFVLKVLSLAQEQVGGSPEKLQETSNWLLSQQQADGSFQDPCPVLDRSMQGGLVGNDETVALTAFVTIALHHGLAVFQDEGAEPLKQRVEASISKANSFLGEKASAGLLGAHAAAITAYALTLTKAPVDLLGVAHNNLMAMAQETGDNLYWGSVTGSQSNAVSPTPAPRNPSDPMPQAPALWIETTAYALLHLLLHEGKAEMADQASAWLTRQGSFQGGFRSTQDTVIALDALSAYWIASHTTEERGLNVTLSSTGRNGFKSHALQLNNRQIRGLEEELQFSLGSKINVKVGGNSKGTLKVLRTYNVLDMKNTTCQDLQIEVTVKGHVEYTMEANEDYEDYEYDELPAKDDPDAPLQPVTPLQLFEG
MEASURE: C4c EC50 (nM)

Below, 4 substances whose answers are already recorded.
CFI-HSA variant Y408L; E457G; E461Q; R462K; N531G; ΔC-term (Δ558-PFISQYNV (SEQ ID NO: 14)-565) (enzyme): 111
CFI-HSA variant E457G; E461Q; F464Y; N531G; GGSSGG (SEQ ID NO: 6); CR1 (ccp15-17) (from UniProt P17927) (enzyme): 38.4
CFI-HSA variant E457G; E461Q; N531G; GGSSGG (SEQ ID NO: 6); CR1 (ccp15-17) (from UniProt P17927) (enzyme): 50.3
WT; GGSSGG (SEQ ID NO: 6); CR1(ccp15-17); GGSSGG (SEQ ID NO: 6); fH(ccp1-4) (enzyme): 60.3

P: CFI-HSA variant N531G; E457G; E461Q; ΔC-term (Δ558-PFISQYNV (SEQ ID NO: 14)-565) (enzyme)
Q: CFI-HSA variant E457G; N531G; E461Q; R462K; F464Y; E530Y; GGSSGG (SEQ ID NO: 6); CR1(ccp15-17) (from UniProt P17927) (enzyme)
Hey, between P and Q which has a smaller measured C4c EC50 (nM)? Pick one and reply with its label. P

###

molecular target: soluble human C3b (human)
MEASURE: iC3b Screen Ref Fold (fold of CFI-HSA wild type)

# count of solved cases: 3
CFI-HSA variant E457G; WT; GGSSGG (SEQ ID NO: 6); CR1(ccp15-17) (from UniProt P17927) (enzyme): 0.1
CFI-HSA variant Y408L; E457G; N531G; WT; GGSSGG (SEQ ID NO: 6); CR1(ccp15-17) (from UniProt P17927) (enzyme): 0.1
CFI-HSA E457G; S507A; GGSSGG (SEQ ID NO: 6); CCP_1-4 (enzyme): 0.01

A: CFI-HSA variant E457G; N531G; WT; GGSSGG (SEQ ID NO: 6); CR1(ccp15-17) (from UniProt P17927) (enzyme)
B: CFI-HSA variant P535G; WT; GGSSGG (SEQ ID NO: 6); CR1(ccp15-17) (from UniProt P17927) (enzyme)
Which item exceeds the other in iC3b Screen Ref Fold (fold of CFI-HSA wild type), A or B ? Write the label of whichever entry you select. A
(A: 0.15, B: 0)

I: CFI-HSA S507A; GGSSGG (SEQ ID NO: 6); CCP_1-4 (enzyme)
II: CFI-HSA variant N531G; P535G; WT; GGSSGG (SEQ ID NO: 6); CR1(ccp15-17) (from UniProt P17927) (enzyme)
Hello, I am sorting some records. Could you say if I or II has the smaller iC3b Screen Ref Fold (fold of CFI-HSA wild type) value? Kindly give the label for the entry you pick. I
(I: 0, II: 0.06)

###

target: soluble human C3b (human) (UniProt P01024)
MEASURE: iC3b Screen Ref Fold (fold of reference)

CFI-HSA fusion WT; GGSSGG (SEQ ID NO: 6); CR1(ccp15); CR1(ccp16); CR1(ccp17); fH(ccp4) (from UniProt P17927) (enzyme): 0.01
CFI-HSA fusion WT; GGSSGG (SEQ ID NO: 6); fH(ccp1); CR1(ccp16); fH(ccp3); fH(ccp4) (from UniProt P17927) (enzyme): 0
CFI-HSA fusion WT; GGSSGG (SEQ ID NO: 6); fH(ccp1); CR1(ccp16); CR1(ccp17); fH(ccp4) (from UniProt P17927) (enzyme): 0

a: CFI-HSA fusion WT; GGSSGG (SEQ ID NO: 6); CR1(ccp15); fH(ccp2); fH(ccp3); fH(ccp4) (from UniProt P17927) (enzyme)
b: CFI-HSA-FH_CCP1-4 fusion, Y408L; N531G; GGSSGG (SEQ ID NO: 6); CCP_1-4 (enzyme)
Return label of the item with the larger iC3b Screen Ref Fold (fold of reference). Candidates: a , b . Answer by quoting the chosen item's label. b

A: CFI-HSA-FH_CCP1-4 fusion, Y408L; N531G; E457G; E461Q; R462K; F464Y; GGSSGG (SEQ ID NO: 6); CCP_1-4 (enzyme)
B: CFI-HSA fusion WT; GGSSGG (SEQ ID NO: 6); CR1(ccp15); CR1(ccp16); fH(ccp3); fH(ccp4) (from UniProt P17927) (enzyme)
// select label with min value of measured iC3b Screen Ref Fold (fold of reference) from [ A , B ] Answer by stating the label of the chosen item. B

###

Biological target: human C4b (human) (UniProt P0C0L4)
Sequence: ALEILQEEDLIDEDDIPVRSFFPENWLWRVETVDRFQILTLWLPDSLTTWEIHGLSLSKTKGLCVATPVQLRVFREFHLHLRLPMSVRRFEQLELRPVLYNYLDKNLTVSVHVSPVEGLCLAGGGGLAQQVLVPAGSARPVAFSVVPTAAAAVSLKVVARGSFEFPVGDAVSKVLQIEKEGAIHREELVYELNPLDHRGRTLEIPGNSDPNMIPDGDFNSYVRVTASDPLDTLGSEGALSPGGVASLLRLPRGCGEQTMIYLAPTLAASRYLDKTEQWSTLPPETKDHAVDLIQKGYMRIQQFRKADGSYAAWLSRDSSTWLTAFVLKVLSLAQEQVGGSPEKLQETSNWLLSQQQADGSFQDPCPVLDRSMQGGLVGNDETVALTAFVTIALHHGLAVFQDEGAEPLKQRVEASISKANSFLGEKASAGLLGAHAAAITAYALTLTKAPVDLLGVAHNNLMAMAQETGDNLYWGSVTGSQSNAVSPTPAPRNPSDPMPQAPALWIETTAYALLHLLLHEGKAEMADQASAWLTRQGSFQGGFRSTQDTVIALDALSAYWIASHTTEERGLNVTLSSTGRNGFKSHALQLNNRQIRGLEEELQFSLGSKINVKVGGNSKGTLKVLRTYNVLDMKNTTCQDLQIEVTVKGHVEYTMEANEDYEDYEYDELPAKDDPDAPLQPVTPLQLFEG
MEASURE: C4c EC50 (nM)

Below, each entry is followed by its recorded C4c EC50 (nM) result.
CFI-HSA variant E457G; N531G; E461Q; R462K; F464Y; GGSSGG (SEQ ID NO: 6); CR1 (ccp15-17) (from UniProt P17927) (enzyme): 43.1
CFI-HSA variant Y408L; E457G; R462K; F464Y; N531G; GGSSGG (SEQ ID NO: 6); CR1 (ccp15-17) (from UniProt P17927) (enzyme): 76.4

1: WT; GGSSGG (SEQ ID NO: 6); CR1(ccp15-17) (enzyme)
2: CFI-HSA variant Y408L; N531G; ΔC-term (Δ558-PFISQYNV (SEQ ID NO: 14)-565) (enzyme)
3: CFI-HSA variant Y408L; E457G; E461Q; R462K; N531G; GGSSGG (SEQ ID NO: 6); CR1 (ccp15-17) (from UniProt P17927) (enzyme)
Please list these substances in decreasing order of C4c EC50 (nM). Please list the labels according to the requested order. 2, 3, 1
(2: 173 nM, 3: 91 nM, 1: 53.1 nM)
